FYI, the data here is from the supplement of paper PMC10065799.

EXPERIMENTAL_TARGET: FGFR1 (UniProt P11362)
Sequence (P11362 whole entry, looked up): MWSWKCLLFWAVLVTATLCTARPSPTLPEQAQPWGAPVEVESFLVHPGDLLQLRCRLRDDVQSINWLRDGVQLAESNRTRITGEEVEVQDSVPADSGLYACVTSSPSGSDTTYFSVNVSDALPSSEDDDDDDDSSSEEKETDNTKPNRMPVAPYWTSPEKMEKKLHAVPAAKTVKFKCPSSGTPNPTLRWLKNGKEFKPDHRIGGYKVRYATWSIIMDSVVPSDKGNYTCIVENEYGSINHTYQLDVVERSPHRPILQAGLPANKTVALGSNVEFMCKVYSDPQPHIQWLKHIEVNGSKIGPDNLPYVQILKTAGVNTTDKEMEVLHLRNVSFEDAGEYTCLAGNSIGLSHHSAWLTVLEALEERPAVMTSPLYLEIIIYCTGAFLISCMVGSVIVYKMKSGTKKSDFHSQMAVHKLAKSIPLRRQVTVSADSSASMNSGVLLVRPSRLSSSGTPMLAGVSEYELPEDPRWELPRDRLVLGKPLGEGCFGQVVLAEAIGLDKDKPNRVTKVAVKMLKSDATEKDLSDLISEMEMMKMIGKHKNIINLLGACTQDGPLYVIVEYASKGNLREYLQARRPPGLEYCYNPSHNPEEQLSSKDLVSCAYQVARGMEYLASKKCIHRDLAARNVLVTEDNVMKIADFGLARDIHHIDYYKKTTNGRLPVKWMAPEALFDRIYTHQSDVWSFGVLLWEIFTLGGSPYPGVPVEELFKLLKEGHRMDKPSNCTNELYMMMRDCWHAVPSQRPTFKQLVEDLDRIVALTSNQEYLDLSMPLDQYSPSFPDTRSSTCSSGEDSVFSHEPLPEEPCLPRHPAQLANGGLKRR
PROTOCOL_NOTES: phosphorylation enrichment, bacterial display (enrichment ratio); higher = better substrate or ligand; peptides without Tyr show the background;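 further: 11-residue human phosphosite peptides and single-mutation variants displayed on the E. coli surface, counted by deep sequencing, each peptide's frequency after selection divided by its frequency in the unselected input library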;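 further: frequency after pTyr selection over input frequency; kinase dosed for 20-30% of maximal phosphorylation in three min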
Kind request: treat 0.5 as inclusive, so phosphorylation enrichment at 0.5 or higher is met, anything lower is not met.

Solved cases below.
[
  {
    "SEQUENCE_STRING": "TFGVVYKARNK [CDK2_Y19_YF]",
    "CLASSIFICATION": "met"
  },
  {
    "SEQUENCE_STRING": "KINKMYSDRAM",
    "CLASSIFICATION": "not met"
  },
  {
    "SEQUENCE_STRING": "VKKNRYKDILP [PTPN12_Y64]",
    "CLASSIFICATION": "met"
  },
  {
    "SEQUENCE_STRING": "KKKKQYKDKFL [CASK_Y708_YF]",
    "CLASSIFICATION": "met"
  },
  {
    "SEQUENCE_STRING": "HITQVYGFYDE [PPP2CA_Y127_Q122H]",
    "CLASSIFICATION": "met"
  }
]

-- ask Reported phosphorylation enrichment reaches at least 0.5 for FFHCTYKKRMI [CLEC12A_Y242_YF] ?
-- reply not met
